- SYSTEM_TESTED: HDAC 11 (Homo sapiens, UniProt Q96DB2)
- Construct: purchased BPS Biosciences 50687
- Sequence (Q96DB2 whole entry): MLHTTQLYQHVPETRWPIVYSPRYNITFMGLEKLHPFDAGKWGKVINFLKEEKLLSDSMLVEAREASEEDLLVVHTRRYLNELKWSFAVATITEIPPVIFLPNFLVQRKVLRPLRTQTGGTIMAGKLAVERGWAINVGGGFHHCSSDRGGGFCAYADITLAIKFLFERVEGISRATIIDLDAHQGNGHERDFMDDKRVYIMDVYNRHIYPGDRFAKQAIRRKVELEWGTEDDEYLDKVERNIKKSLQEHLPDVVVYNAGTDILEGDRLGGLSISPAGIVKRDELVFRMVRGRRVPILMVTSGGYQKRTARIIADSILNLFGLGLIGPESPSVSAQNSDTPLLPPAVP
- EXPERIMENT_NOTES: HDAC 11 fluorogenic assay kit
- Format: biochemical
- REPORTED_CONDITIONS: 50 ug/ml
MEASURED_QUANTITY: HDAC 11 activity, % of water-treated controls
In your response, the unit should come after the numeric value.

Worked examples, 3 molecules total:
| MOLECULE | RESULT |
| --- | --- |
| CCCC(=O)[O-].[Na+] [Sodium butyrate, reference compound] | 89% |
| CCCC(=O)NCCCCC(NC(=O)CCC)C(=O)[O-].CCCC(=O)NCCCCC(NC(=O)CCC)C(=O)[O-].[Ca+2] (stereo not shown) [Ca di-(di-n-butyryl lysinate), calcium di-(di-n-butyryl lysinate)] | 100% |
| CCCC(=O)N[C@@H](CC(C)C)C(=O)[O-].CCCC(=O)N[C@@H](CC(C)C)C(=O)[O-].[Zn+2] [Zn di-(n-butyryl leucinate), Zinc di-(n-butyryl leucinate)] | 93% |

Task: Quick one: HDAC 11 activity, % of water-treated controls of CCCC(=O)NCCCC[C@H](NC(=O)CCC)C(=O)[O-].CCCC(=O)NCCCC[C@H](NC(=O)CCC)C(=O)[O-].[Zn+2] [Zn di-(di-n-butyryl lysinate), Zinc di-(di-n-butyryl lysinate)] ?
Output: 17%

====

Documented HDAC 2 activity, % of water-treated controls across a set of compounds
- SYSTEM_TESTED: HDAC2 (Homo sapiens)
- Sequence (Q92769 whole entry): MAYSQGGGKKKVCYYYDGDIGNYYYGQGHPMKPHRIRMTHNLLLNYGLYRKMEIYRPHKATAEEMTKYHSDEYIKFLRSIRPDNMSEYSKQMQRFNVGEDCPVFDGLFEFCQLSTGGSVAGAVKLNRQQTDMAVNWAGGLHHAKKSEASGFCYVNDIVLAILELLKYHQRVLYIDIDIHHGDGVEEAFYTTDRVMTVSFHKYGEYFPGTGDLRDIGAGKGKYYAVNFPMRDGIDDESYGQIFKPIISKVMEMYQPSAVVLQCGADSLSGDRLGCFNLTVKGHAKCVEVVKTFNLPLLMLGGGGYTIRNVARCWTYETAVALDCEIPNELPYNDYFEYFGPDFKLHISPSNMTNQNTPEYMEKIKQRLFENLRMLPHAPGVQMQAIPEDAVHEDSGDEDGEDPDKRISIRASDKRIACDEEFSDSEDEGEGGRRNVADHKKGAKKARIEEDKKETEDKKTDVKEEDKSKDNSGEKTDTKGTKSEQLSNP
- REPORTED_CONDITIONS: 200 ug/ml
Respond numerically; units are % and should not be typed.

Look over these answered cases.
| COMPOUND | VALUE_UNIT | RECORDED_NUMBER |
| --- | --- | --- |
| CCCC(=O)[O-].[Na+] [Sodium butyrate, reference compound] | % | 94 |
| CCCC(=O)NCCCC[C@H](NC(=O)CCC)C(=O)[O-].CCCC(=O)NCCCC[C@H](NC(=O)CCC)C(=O)[O-].[Zn+2] [Zn di-(di-n-butyryl lysinate), Zinc di-(di-n-butyryl lysinate)] | % | 15 |
| CCCC(=O)NCCCCC(NC(=O)CCC)C(=O)[O-].CCCC(=O)NCCCCC(NC(=O)CCC)C(=O)[O-].[Ca+2] (stereo not shown) [Ca di-(di-n-butyryl lysinate), calcium di-(di-n-butyryl lysinate)] | % | 94 |

Next up:
Task: So what HDAC 2 activity, % of water-treated controls did CCCC(=O)N[C@@H](CC(C)C)C(=O)[O-].CCCC(=O)N[C@@H](CC(C)C)C(=O)[O-].[Zn+2] [Zn di-(n-butyryl leucinate), Zinc di-(n-butyryl leucinate)] get with HDAC2 (Homo sapiens)?
Output: 28

====

- SYSTEM_TESTED: HDAC10 (Homo sapiens)
- Sequence (Q969S8 1-669): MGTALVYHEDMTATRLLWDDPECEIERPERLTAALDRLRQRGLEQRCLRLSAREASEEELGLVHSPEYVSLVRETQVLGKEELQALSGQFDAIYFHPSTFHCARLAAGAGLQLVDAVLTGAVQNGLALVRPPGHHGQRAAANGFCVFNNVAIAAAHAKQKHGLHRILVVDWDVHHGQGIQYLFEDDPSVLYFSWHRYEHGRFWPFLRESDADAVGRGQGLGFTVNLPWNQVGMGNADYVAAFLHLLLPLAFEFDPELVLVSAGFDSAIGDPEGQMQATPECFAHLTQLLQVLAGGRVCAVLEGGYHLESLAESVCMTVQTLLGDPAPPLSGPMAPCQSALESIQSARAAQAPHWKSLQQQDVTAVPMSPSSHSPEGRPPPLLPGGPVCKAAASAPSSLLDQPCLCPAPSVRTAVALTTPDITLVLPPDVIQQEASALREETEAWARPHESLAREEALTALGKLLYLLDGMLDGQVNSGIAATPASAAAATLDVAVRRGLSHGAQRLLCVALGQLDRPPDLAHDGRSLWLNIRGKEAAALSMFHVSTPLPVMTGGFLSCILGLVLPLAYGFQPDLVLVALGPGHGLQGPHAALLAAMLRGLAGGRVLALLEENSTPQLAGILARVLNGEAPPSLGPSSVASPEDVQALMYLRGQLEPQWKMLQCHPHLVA
- REPORTED_CONDITIONS: 50 ug/ml
A collection of compounds and their measured HDAC 10 activity, % of water-treated controls
Unit % implied. Number only.

Observe how each entry below is paired with its result.
| COMPOUND | VALUE_UNIT | RECORDED_NUMBER |
| --- | --- | --- |
| CCCC(=O)N[C@@H](CC(C)C)C(=O)[O-].CCCC(=O)N[C@@H](CC(C)C)C(=O)[O-].[Zn+2] [Zn di-(n-butyryl leucinate), Zinc di-(n-butyryl leucinate)] | % | 10 |
| CCCC(=O)NCCCCC(NC(=O)CCC)C(=O)[O-].CCCC(=O)NCCCCC(NC(=O)CCC)C(=O)[O-].[Ca+2] (stereo not shown) [Ca di-(di-n-butyryl lysinate), calcium di-(di-n-butyryl lysinate)] | % | 103 |
| CCCC(=O)[O-].[Na+] [Sodium butyrate, reference compound] | % | 100 |

Continue with the next compound.
Task: GET /values?readout=HDAC 10 activity, % of water-treated controls&item= CCCC(=O)NCCCC[C@H](NC(=O)CCC)C(=O)[O-].CCCC(=O)NCCCC[C@H](NC(=O)CCC)C(=O)[O-].[Zn+2] [Zn di-(di-n-butyryl lysinate), Zinc di-(di-n-butyryl lysinate)]
Output: 13
